Please go through the items and note down their melting point.

### Prompt Tell me the measured melting point of COc1ccc(C2CC(c3ccc(Cl)cc3Cl)=NN2c2nc(-c3ccc(Cl)cc3)cs2)cc1OC (stereo not shown) [1b] , please.
### Response 158 to 159 °C

### Prompt Tell me the measured melting point of COc1ccc(C2CC(c3ccc(Cl)cc3Cl)=NN2c2nc(-c3ccccc3)cs2)cc1 (stereo not shown) [1c] , please.
### Response 72 to 75 °C

### Prompt Tell me the measured melting point of COc1ccc(C2CC(c3ccc(Cl)cc3Cl)=NN2c2nc(-c3ccc(Cl)cc3)cs2)cc1 (stereo not shown) [1d] , please.
### Response 140 to 141 °C

### Prompt Tell me the measured melting point of COc1ccc(C2CC(c3ccc(Cl)cc3Cl)=NN2c2nc(-c3ccccc3)cs2)cc1OC (stereo not shown) [1a] , please.
### Response 120 to 122 °C
